Biological target: Trifunctional purine biosynthetic protein adenosine-3 (Mus musculus, UniProt Q64737)
Sequence (Q64737 whole entry): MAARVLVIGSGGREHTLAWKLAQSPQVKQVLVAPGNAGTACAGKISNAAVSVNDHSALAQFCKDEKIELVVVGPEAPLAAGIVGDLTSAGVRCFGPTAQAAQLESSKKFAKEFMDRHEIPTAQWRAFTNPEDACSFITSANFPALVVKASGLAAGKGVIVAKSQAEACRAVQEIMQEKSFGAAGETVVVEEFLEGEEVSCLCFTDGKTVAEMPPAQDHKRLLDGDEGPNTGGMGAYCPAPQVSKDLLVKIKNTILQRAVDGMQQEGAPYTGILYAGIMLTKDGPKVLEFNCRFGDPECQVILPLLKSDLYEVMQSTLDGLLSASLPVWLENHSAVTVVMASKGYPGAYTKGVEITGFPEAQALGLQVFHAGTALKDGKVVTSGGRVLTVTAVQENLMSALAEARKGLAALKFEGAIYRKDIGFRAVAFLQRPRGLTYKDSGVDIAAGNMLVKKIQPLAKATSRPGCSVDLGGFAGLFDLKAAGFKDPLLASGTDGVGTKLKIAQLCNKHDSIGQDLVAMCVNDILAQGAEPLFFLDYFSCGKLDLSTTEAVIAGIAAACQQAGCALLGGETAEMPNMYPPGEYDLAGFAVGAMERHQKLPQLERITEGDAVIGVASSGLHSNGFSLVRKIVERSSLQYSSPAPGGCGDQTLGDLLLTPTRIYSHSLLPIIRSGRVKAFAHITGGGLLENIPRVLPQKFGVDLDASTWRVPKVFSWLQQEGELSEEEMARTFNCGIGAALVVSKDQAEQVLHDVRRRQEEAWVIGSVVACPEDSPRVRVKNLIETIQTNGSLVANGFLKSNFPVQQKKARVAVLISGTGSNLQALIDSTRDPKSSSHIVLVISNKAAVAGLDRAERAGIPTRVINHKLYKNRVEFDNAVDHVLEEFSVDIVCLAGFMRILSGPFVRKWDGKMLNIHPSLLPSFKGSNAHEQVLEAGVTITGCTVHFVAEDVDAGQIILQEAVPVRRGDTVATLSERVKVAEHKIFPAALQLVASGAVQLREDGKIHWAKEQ
Assay: In vitro inhibition of mouse GAR transformylase
recorded.endpoint: Ki

compound	system.name	recorded.result
Nc1nc(O)c2c(n1)CCC(CNc1ccc(C(=O)NC(CCC(=O)O)C(=O)O)cc1)C2 (stereo unspecified)	Trifunctional purine biosynthetic protein adenosine-3 (Mus musculus, UniProt Q64737)	65 nM

Taken from ChEMBL document CHEMBL1125453.
